Target: OAT4 (Solute carrier family 22 member 11) (Homo sapiens, UniProt Q9NSA0)
Sequence (Q9NSA0 whole entry): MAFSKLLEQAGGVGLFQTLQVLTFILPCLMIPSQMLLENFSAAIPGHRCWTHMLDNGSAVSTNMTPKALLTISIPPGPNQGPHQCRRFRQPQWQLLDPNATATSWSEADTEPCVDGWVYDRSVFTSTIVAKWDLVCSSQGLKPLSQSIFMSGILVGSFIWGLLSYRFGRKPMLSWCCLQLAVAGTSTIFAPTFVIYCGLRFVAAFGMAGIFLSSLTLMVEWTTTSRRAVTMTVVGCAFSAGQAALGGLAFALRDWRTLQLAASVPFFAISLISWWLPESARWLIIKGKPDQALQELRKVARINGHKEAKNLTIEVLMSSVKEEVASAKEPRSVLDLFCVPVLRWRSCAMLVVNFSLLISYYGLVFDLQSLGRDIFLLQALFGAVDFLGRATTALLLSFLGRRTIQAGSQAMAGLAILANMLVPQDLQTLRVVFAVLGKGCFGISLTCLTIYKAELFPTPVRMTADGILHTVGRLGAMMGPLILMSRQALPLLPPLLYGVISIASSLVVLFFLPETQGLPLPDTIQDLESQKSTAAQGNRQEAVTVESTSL
Test: TP_TRANSPORTER: inhibition of MTX uptake (MTX: 1 uM, PCG: 1000 uM) in OAT4-expressing S2 cells
Assay type: functional, cell-based
Set-up: scale not given: the % may be the effect or the level left
Settings: mouse, probe MTX, read-out: Activity
Property: activity at 1000 µM (%)

compound="CC1(C)S[C@@H]2[C@H](NC(=O)Cc3ccccc3)C(=O)N2[C@H]1C(=O)O [PENICILLIN G]" property="activity at 1000 µM" endpoint_value=79.7

----------
Molecular target: OAT4 (Solute carrier family 22 member 11) (Homo sapiens)
Experiment: TP_TRANSPORTER: inhibition of MTX uptake (MTX: 1 uM, Probenecid: 1000 uM) in OAT4-expressing S2 cells
Format: functional, cell-based
Parameters: scale not given: the % may be the effect or the level left
Details: probe MTX, read-out: Activity
Property: activity at 1000 µM

test_smiles=CCCN(CCC)S(=O)(=O)c1ccc(C(=O)O)cc1 target_of_assay="OAT4 (Solute carrier family 22 member 11) (Homo sapiens)" endpoint_value=81.6%

Provenance of the data: ChEMBL document CHEMBL2073817
